Documented pEC50 across a set of molecules
target.under.test: human GR (Homo sapiens)
Sequence (P04150 1-777): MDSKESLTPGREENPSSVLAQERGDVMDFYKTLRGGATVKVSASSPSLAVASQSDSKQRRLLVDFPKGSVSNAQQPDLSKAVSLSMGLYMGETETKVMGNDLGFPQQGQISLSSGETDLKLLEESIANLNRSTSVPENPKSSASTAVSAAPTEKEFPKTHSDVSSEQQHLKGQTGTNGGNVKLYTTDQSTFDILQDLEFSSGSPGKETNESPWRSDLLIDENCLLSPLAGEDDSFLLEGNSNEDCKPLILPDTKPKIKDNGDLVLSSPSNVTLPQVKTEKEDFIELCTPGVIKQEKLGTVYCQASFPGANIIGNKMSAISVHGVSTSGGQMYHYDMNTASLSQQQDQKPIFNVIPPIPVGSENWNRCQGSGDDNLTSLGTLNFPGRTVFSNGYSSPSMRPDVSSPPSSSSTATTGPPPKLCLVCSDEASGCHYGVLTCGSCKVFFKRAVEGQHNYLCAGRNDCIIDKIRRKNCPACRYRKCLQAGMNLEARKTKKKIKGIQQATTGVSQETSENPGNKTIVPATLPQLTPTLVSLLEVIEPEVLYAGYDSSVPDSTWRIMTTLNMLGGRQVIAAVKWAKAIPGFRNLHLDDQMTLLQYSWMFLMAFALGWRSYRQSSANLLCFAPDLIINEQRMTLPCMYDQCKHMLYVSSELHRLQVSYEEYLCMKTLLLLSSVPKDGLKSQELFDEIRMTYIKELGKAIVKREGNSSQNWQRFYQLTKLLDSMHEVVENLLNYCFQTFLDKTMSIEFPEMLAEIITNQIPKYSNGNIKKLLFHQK
protocol.summary: Trans-Activation Modulation of Glucocorticoid Receptor (GRAMMER), MMTV-LUC reporter gene
Type: cell-based
Set-up: endogenous in cells
study.conditions: Table 1; A549 cells; IP = inflection point; read-out: Transactivation A549 Cells GRAMMER IP
pEC50: −log10 of the molar value.
readout.type: pEC50

molecule: C[C@]12Cc3cnn(-c4ccccc4)c3C=C1CC[C@@]2(O)CCc1ccccc1C(N)=O
readout.type: pEC50
numeric.value: 6.95
//
molecule: C[C@]12Cc3cnn(-c4ccc(F)cc4)c3C=C1CC[C@@]2(O)CCc1cccc(F)c1[C@H](N)C(F)(F)F
readout.type: pEC50
numeric.value: 6.77
//
molecule: CC1(NC(=O)c2ccccc2CC[C@]2(O)CCC3=Cc4c(cnn4-c4ccc(F)cc4)C[C@@]32C)CC1
readout.type: pEC50
numeric.value: 7.32
//
molecule: Cc1ccc(C(N)=O)c(CC[C@]2(O)CCC3=Cc4c(cnn4-c4ccc(F)cc4)C[C@@]32C)c1
readout.type: pEC50
numeric.value: 6.83
//
molecule: CCCNC(=O)c1ccccc1CC[C@]1(O)CCC2=Cc3c(cnn3-c3ccc(F)cc3)C[C@@]21C
readout.type: pEC50
numeric.value: 7.09
//
molecule: CNC(=O)Cc1ccccc1CC[C@]1(O)CCC2=Cc3c(cnn3-c3ccc(F)cc3)C[C@@]21C
readout.type: pEC50
numeric.value: 6.57
//
molecule: C[C@]12Cc3cnn(-c4ccc(F)cc4)c3C=C1CC[C@@]2(O)CCc1ccccc1CNS(=O)(=O)C1CC1
readout.type: pEC50
numeric.value: 6.86
//
molecule: CC(C)NC(=O)c1ccccc1CC[C@]1(O)CCC2=Cc3c(cnn3-c3ccc(F)cc3)C[C@@]21C
readout.type: pEC50
numeric.value: 7.22
//
molecule: C[C@]12Cc3cnn(-c4ccc(F)cc4)c3C=C1CC[C@@]2(O)CCc1ccc(F)cc1C#N
readout.type: pEC50
numeric.value: 6.99
//
molecule: CCS(=O)(=O)NCc1c(F)cccc1CC[C@]1(O)CCC2=Cc3c(cnn3-c3ccc(F)cc3)C[C@@]21C
readout.type: pEC50
numeric.value: 7.30
//
molecule: C=CCNC(=O)c1c(F)cccc1CC[C@]1(O)CCC2=Cc3c(cnn3-c3ccc(F)cc3)C[C@@]21C
readout.type: pEC50
numeric.value: 7.62
//
molecule: C[C@]12Cc3cnn(-c4ccc(F)cc4)c3C=C1CC[C@@]2(O)CCc1cccc(F)c1CNS(=O)(=O)CC(F)(F)F
readout.type: pEC50
numeric.value: 6.68
//
molecule: CCS(=O)(=O)Nc1ccccc1CC[C@]1(O)CCC2=Cc3c(cnn3-c3ccc(F)cc3)C[C@@]21C
readout.type: pEC50
numeric.value: 6.66
//
molecule: C[C@]12Cc3cnn(-c4ccc(F)cc4)c3C=C1CC[C@@]2(O)CCc1ccccc1C(=O)NCC1CC1
readout.type: pEC50
numeric.value: 7.19
//
molecule: C[C@]12Cc3cnn(-c4ccc(F)cc4)c3C=C1CC[C@@]2(O)CCc1ccccc1N1CCC1=O
readout.type: pEC50
numeric.value: 6.54
//
molecule: CC(C)(C)NC(=O)c1ccccc1CC[C@]1(O)CCC2=Cc3c(cnn3-c3ccc(F)cc3)C[C@@]21C
readout.type: pEC50
numeric.value: 6.67
//
molecule: CC(O)(C(N)=O)c1ccccc1CC[C@]1(O)CCC2=Cc3c(cnn3-c3ccc(F)cc3)C[C@@]21C (single isomer, unassigned)
readout.type: pEC50
numeric.value: 6.58
//
molecule: CC(C)C(O)(C(N)=O)c1ccccc1CC[C@]1(O)CCC2=Cc3c(cnn3-c3ccc(F)cc3)C[C@@]21C (stereo partly drawn)
readout.type: pEC50
numeric.value: 7.33
//
molecule: CC(C)CNC(=O)c1ccccc1CC[C@]1(O)CCC2=Cc3c(cnn3-c3ccc(F)cc3)C[C@@]21C
readout.type: pEC50
numeric.value: 7.02
//
molecule: C=C(C)CNC(=O)c1c(F)cccc1CC[C@]1(O)CCC2=Cc3c(cnn3-c3ccc(F)cc3)C[C@@]21C
readout.type: pEC50
numeric.value: 7.02
//
molecule: CCNC(=O)c1ccccc1CC[C@]1(O)CCC2=Cc3c(cnn3-c3ccc(F)cc3)C[C@@]21C
readout.type: pEC50
numeric.value: 7.41
